Entry source: ChEMBL document CHEMBL3046619

molecular target: Protoporphyrinogen IX oxidase (Zea mays); experiment: Inhibition of Zea mays (maize) protoporphyrinogen IX oxidase; details: read-out: pI50 (converted)
EXPERIMENTAL_ENDPOINT: log10 IC50 (log10 of the value in µM)
Heads up, the numbers here are log10 of IC50 in µM units.

*Q* Suppose we examine the molecule CCCn1c(=O)n(-c2ccc(Br)cc2)c(=S)n1CCC ; what log10 IC50 value has been reported?
*A* 1.39

*Q* Suppose we examine the molecule CCn1c(=O)n(-c2ccc(Br)cc2)c(=O)n1CC ; what log10 IC50 value has been reported?
*A* 1.56

*Q* Suppose we examine the molecule CCn1c(=S)s/c(=N\c2ccc(Br)cc2)n1CC ; what log10 IC50 value has been reported?
*A* 0.63

*Q* Suppose we examine the molecule O=c1[nH][nH]c(=S)n1-c1ccc(Br)cc1 ; what log10 IC50 value has been reported?
*A* 1.86

*Q* Suppose we examine the molecule S=c1n(-c2ccc(Br)cc2)c(=S)n2n1CCCCC2 ; what log10 IC50 value has been reported?
*A* -0.89

*Q* Suppose we examine the molecule S=c1n(-c2ccc(Br)cc2)c(=S)n2n1CCCC2 ; what log10 IC50 value has been reported?
*A* -2.00

----------
For each of the molecules below, state its IC50.
Target: Protoporphyrinogen IX oxidase (Zea mays, UniProt Q9FYV8)
Sequence (Q9FYV8 whole entry): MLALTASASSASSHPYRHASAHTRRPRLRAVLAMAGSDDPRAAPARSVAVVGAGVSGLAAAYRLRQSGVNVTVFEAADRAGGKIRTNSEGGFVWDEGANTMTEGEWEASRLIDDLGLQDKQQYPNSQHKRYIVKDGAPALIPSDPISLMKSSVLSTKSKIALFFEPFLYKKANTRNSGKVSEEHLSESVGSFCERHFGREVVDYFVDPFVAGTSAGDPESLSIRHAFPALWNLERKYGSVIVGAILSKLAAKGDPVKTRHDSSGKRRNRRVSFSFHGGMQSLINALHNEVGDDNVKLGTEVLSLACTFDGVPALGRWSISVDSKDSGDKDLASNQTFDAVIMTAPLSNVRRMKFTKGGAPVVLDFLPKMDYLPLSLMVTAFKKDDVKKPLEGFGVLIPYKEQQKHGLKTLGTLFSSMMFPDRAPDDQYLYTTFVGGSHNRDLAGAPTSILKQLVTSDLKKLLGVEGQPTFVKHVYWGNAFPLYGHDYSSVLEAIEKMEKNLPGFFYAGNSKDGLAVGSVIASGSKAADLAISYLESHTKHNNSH
Assay: Inhibition of Zea mays (maize) protoporphyrinogen IX oxidase
Conditions: read-out: pI50 (converted)
Give just the number in nM; leave the unit off.

*Q* Suppose we examine the molecule Cn1c(=O)n(-c2ccc(Br)cc2)c(=O)n1C ; what IC50 value has been reported?
*A* 12900

*Q* Suppose we examine the molecule Cn1c(=O)s/c(=N\c2ccc(Br)cc2)n1C ; what IC50 value has been reported?
*A* 3720

*Q* Suppose we examine the molecule CCn1c(=S)n(-c2ccc(Br)cc2)c(=S)n1CC ; what IC50 value has been reported?
*A* 1380

*Q* Suppose we examine the molecule S=c1n(-c2ccc(Br)cc2)c(=S)n2n1CCC2 ; what IC50 value has been reported?
*A* 34.7

----------
target: Protoporphyrinogen IX oxidase (Zea mays, UniProt Q9FYV8); experiment: Inhibition of Zea mays (maize) protoporphyrinogen IX oxidase; conditions: read-out: pI50 (converted)
Mark T only when IC50 stays strictly below 300 nM. Values equal to the cut-off are F.

*Q* Determine if CCn1c(=O)n(-c2ccc(Br)cc2)c(=S)n1CC shows IC50 strictly lower than 300 nM.
*A* F

*Q* Determine if Cn1c(=S)s/c(=N\c2ccc(Br)cc2)n1C shows IC50 strictly lower than 300 nM.
*A* F

*Q* Determine if O=C1C2=C(CCCC2)C(=O)N1c1ccc(Cl)cc1 shows IC50 strictly lower than 300 nM.
*A* T

*Q* Determine if Cn1c(=S)n(-c2ccc(Br)cc2)c(=S)n1C shows IC50 strictly lower than 300 nM.
*A* T

*Q* Determine if Cn1c(=O)n(-c2ccc(Br)cc2)c(=S)n1C shows IC50 strictly lower than 300 nM.
*A* T

*Q* Determine if CCn1c(=O)s/c(=N\c2ccc(Br)cc2)n1CC shows IC50 strictly lower than 300 nM.
*A* F
